biological target: human CXCR3 (N-delta 4) (Homo sapiens); construct: CD8 leader (N); Flag tag; expressed in transfected cells; membranes; assay: Human CXCR3 (N-delta 4) Scintillation Proximity Assay (SPA), [125I] IP-10 binding; conditions: IC50 rating; [125I] IP-10 displacement, Ba/F3-hCXCR3 (N-delta 4) membranes
Sequence (P49682 5-368 limits assumed): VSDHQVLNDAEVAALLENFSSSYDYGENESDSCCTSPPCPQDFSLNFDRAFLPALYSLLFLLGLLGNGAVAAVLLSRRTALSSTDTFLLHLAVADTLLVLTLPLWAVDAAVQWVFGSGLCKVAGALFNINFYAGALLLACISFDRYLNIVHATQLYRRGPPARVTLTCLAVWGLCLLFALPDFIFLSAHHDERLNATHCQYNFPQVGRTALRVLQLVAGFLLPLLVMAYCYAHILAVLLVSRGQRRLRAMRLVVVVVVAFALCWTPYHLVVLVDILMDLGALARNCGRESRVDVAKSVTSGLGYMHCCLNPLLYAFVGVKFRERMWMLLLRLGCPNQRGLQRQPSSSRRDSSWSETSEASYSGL
reported-metric: IC50

compound_structure=CC[C@H]1CN(c2ncc(-c3ncc[nH]3)cc2Cl)CCN1C1CCN(C(=O)c2ccc(C#N)nc2)CC1 reported_metric=IC50 result="< 0.025 µM"
compound_structure=CCNc1nnc(-c2cnc(N3CCN(C4CCN(C(=O)c5ccc(Cl)nc5N)CC4)[C@@H](CC)C3)c(Cl)c2)o1 reported_metric=IC50 result="< 0.025 µM"
compound_structure=CC[C@H]1CN(c2ncc(C3=NC(C)(C)CN3)cc2Cl)CCN1C1CCN(C(=O)c2ccc(Cl)cc2)CC1 reported_metric=IC50 result="0.025 to 0.1 µM"
compound_structure=CC[C@H]1CN(c2ncc(-c3ncc[nH]3)cc2Cl)CCN1C1CCN([C@@H](C(=O)NC)c2ccc(Cl)cc2)CC1 reported_metric=IC50 result="< 0.025 µM"
compound_structure=CC[C@H]1CN(c2ncc(-c3ncc[nH]3)cc2Cl)CCN1C1CCN(Cc2ccc(C#CCOC)cc2)CC1 reported_metric=IC50 result="< 0.025 µM"
compound_structure=CC[C@H]1CN(c2ncc(C3=NCCN3C(=O)c3ccc(C#N)cc3)cc2Cl)CCN1C1CCN(C(=O)c2ccc(C#N)cc2)CC1 reported_metric=IC50 result="> 0.1 µM"
compound_structure=CC[C@H]1CN(c2ccc(-c3ncc[nH]3)cc2Br)CCN1C1CCN(Cc2ccc(Cl)cc2F)CC1 reported_metric=IC50 result="< 0.025 µM"

* * *

molecular target: human CXCR3 (N-delta 4) (Homo sapiens); construct: CD8 leader (N); Flag tag; expressed in transfected cells; membranes; assay: Human CXCR3 (N-delta 4) Scintillation Proximity Assay (SPA), [125I] IP-10 binding; conditions: IC50 rating; [125I] IP-10 displacement, Ba/F3-hCXCR3 (N-delta 4) membranes
pIC50: −log10 of the molar value.
reported-metric: pIC50

compound="CC[C@H]1CN(c2ncc(C3=NC(C)CN3)cc2Cl)CCN1C1CCN(C(=O)c2ccc(Cl)cc2N)CC1 (stereo partly shown)" reported_metric=pIC50 result="> 7.60"
compound=CC[C@H]1CN(c2ncc(C3=NCCN3)cc2Cl)CCN1C1CCN(Cc2ccc(Cl)cc2C(C)(C)O)CC1 reported_metric=pIC50 result="> 7.60"
compound=CC[C@H]1CN(c2ncc(-c3ncc[nH]3)cc2Cl)CCN1C1CCN(Cc2ccc3[nH]ccc3c2)CC1 reported_metric=pIC50 result="< 7.00"
compound=CC[C@H]1CN(c2ncc(C3=NCCN3)cc2Cl)CCN1C1CCN(C(=O)c2ccc(C#CC(C)(C)O)cc2)CC1 reported_metric=pIC50 result="7.00 to 7.60"
compound=CC[C@H]1CN(c2ncc(-c3ncc[nH]3)cc2Cl)CCN1C1CCN(Cc2ccc(OC(F)(F)F)cc2)CC1 reported_metric=pIC50 result="> 7.60"
compound=CC[C@H]1CN(c2ncc(-c3ncc[nH]3)cc2Cl)CCN1C1CCN(C(=O)c2ccc(Cl)cc2N)CC1 reported_metric=pIC50 result="> 7.60"
compound=CC[C@H]1CN(c2ncc(-c3ncc[nH]3)cc2Cl)CCN1C1CCN(C(=O)c2ccc(OC(F)(F)F)cc2)CC1 reported_metric=pIC50 result="7.00 to 7.60"
